Test system: Escherichia coli N10
method_summary: Agar dilution antibacterial test (MIC)
Type: cell-based
condition_set: read-out: MIC
test_readout: MIC (µg/mL)
The figure you give is taken to be in µg/mL; do not add the unit.

Some entries whose results are on file:
Suppose we examine the compound N[C@@H](C(=O)N[C@@H]1C(=O)N2C(C(=O)O)=C(C(F)(F)F)CC[C@H]12)c1cccc(Br)c1 ; what MIC value has been reported?
8

Also N[C@@H](C(=O)N[C@@H]1C(=O)N2C(C(=O)O)=C(C(F)(F)F)CC[C@H]12)c1cccc(F)c1 ?
4

Also N[C@@H](C(=O)N[C@@H]1C(=O)N2C(C(=O)O)=C(C(F)(F)F)CC[C@H]12)c1ccc(F)cc1 ?
4

Continuing:
Suppose we examine the compound N[C@@H](C(=O)N[C@@H]1C(=O)N2C(C(=O)O)=C(C(F)(F)F)CC[C@H]12)c1ccc(O)cc1 ; what MIC value has been reported?
0.85

Also N[C@@H](C(=O)N[C@@H]1C(=O)N2C(C(=O)O)=C(C(F)(F)F)CC[C@H]12)c1ccccc1 ?
2

Cited source for all entries: patent US5099015A
